This collection of values is drawn from patent US20250034125A1.

Target: SCD5 (Homo sapiens)
Construct: host or cells: Saccharomyces cerevisiae ole1Δ strain (W303 pdr1Δ pdr3Δ background), plasmid pRS316, TDH3 promoter
Assay: Growth inhibition of yeast (ole1Δ) expressing human SCD5 as the sole desaturase
Type: cell-based
Settings: yeast strain with SCD5 plasmid, OD600 growth read at 40 h; read-out: SCD5 IC50
Rule for this label: Criterion met means IC50 is less than 800 nM; Criterion not met means IC50 is at least 800 nM.

Answered examples (5):
compound	class.label
Cn1nc(NC(=O)N2CCC(Cc3ccc(Cl)cc3)CC2)ccc1=O [Compound 43]	Criterion not met
O=C(Cc1ccc(=O)[nH]n1)N1CCC(Cc2cccc(Cl)c2)CC1 [Compound 34]	Criterion not met
Cn1nc(NC(=O)N2CCC(Oc3cc(F)c(F)c(Cl)c3)CC2)ccc1=O [Compound 89]	Criterion met
Cn1nc(NC(=O)N2CCC(Oc3ccc(C(F)(F)F)cc3)CC2)ccc1=O [Compound 76]	Criterion not met
Cc1cc(NC(=O)N2CCC(Cc3cc(F)cc(F)c3)CC2)nn(C)c1=O [Compound 128]	Criterion met

Bench note: check whether Cn1cc(NC(=O)N2CCC(Cc3cc(F)cc(Cl)c3)CC2)ccc1=O [Compound 8] shows IC50 below 800 nM
Criterion not met

Bench note: check whether Cn1nc(NC(=O)N2CCC(Oc3ccc(F)cc3C(F)(F)F)CC2)ccc1=O [Compound 85] shows IC50 below 800 nM
Criterion met

Bench note: check whether Cn1nc(NC(=O)N2CCC(Oc3ccccc3C(F)(F)F)CC2)ccc1=O [Compound 75] shows IC50 below 800 nM
Criterion met

Bench note: check whether Cn1nc(-c2nnc(N3CCC(Cc4cccc(F)c4)CC3)o2)ccc1=O [Compound 119] shows IC50 below 800 nM
Criterion met

----------
Listed compounds paired with reported pIC50
Target: SCD1 (Homo sapiens, UniProt O00767)
Construct: host or cells: Saccharomyces cerevisiae ole1Δ strain (W303 pdr1Δ pdr3Δ background), plasmid pRS316, TDH3 promoter
Sequence (O00767 whole entry): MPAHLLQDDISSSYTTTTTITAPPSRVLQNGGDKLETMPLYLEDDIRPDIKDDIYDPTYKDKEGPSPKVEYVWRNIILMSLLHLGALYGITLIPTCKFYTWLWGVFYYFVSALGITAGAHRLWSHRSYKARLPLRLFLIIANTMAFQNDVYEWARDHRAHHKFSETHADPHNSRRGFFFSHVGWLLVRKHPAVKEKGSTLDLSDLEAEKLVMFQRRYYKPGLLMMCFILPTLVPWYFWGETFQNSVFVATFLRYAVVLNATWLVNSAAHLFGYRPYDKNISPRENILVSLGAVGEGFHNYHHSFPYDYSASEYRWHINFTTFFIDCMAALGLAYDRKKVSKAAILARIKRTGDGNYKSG
Experiment: Growth inhibition of yeast (ole1Δ) expressing human SCD1 as the sole desaturase
Type: cell-based
Conditions: yeast strain with SCD1 plasmid, OD600 growth read at 40 h; read-out: SCD1 IC50
By convention, pIC50 is the negative base-10 log of a molar concentration.

Answered cases to consult:
Cn1cc(-c2nc(N3CCC(Oc4cc(F)cc(F)c4)CC3)no2)ccc1=O 4.91
Cn1nc(NC(=O)N2CCC(Cc3cccc(F)c3)CC2)ccc1=O 5.57
Cn1nc(NC(=O)N2CCC(=Cc3cc(F)cc(F)c3)CC2)ccc1=O 6.36
Cc1cc(NC(=O)N2CCC(Cc3ccc(F)c(F)c3)CC2)nn(C)c1=O 6.51
Cn1nc(NC(=O)N2CC[C@H](Oc3ccc(F)c(F)c3)C2)ccc1=O 6.38

Form field pIC50, entry Cn1cc(-c2noc(N3CCC(Cc4ccc(F)c(F)c4)CC3)n2)ccc1=O : 5.57

----------
Molecular target: SCD5 (Homo sapiens)
Construct: host or cells: Saccharomyces cerevisiae ole1Δ strain (W303 pdr1Δ pdr3Δ background), plasmid pRS316, TDH3 promoter
Sequence (Q86SK9 1-330): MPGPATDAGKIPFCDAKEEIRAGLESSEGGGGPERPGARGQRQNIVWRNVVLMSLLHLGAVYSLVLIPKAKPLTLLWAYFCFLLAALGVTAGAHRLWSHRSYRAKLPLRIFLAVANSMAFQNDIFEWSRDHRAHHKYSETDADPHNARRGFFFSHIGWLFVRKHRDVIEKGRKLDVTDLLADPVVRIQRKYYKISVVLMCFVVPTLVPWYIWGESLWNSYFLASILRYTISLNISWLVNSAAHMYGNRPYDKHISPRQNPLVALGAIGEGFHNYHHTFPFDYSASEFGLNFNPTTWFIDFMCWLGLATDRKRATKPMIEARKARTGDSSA
Assay: Growth inhibition of yeast (ole1Δ) expressing human SCD5 as the sole desaturase
Format: cell-based
Conditions: yeast strain with SCD5 plasmid, OD600 growth read at 40 h; read-out: SCD5 IC50
readout: pIC50
By convention, pIC50 is the negative base-10 log of a molar concentration.

Answered cases to consult:
Cn1nc(-c2nc(N3CCC(Cc4ccccc4)CC3)no2)ccc1=O 6.42
Cc1cc(NC(=O)N2CCC(Cc3ccc(F)c(F)c3)CC2)nn(C)c1=O 7.10
Cn1nc(NC(=O)N2CC(Oc3ccc(F)c(F)c3)C2)ccc1=O 5.74
Cn1nc(OC(=O)N2CCC(Oc3ccc(F)c(F)c3)CC2)ccc1=O 5.10
Cn1nc(NC(=O)N2CCC(Oc3ccccc3)CC2)ccc1=O 5.68

Form field pIC50, entry Cn1nc(NC(=O)N2CCC(Oc3ccccc3Cl)CC2)ccc1=O : 6.82

Form field pIC50, entry Cn1nc(NC(=O)N2CCC(Cc3ccc(F)c(Cl)c3)CC2)ccc1=O : 7.40

Form field pIC50, entry Cn1nc(CC(=O)N2CCC(Oc3cccc(Cl)c3)CC2)ccc1=O : 5.86
